assay: soluble on expression in E. coli; label from the status in PepcDB or PDB records
experimental-readout: soluble on expression in E. coli

Some sequences with known soluble on expression in E. coli results, for comparison:
MSLSSPNLSFYYNECERFESFLKNHHLHLESFHPYLEKAFFEMVLNGGKRFRPKLFLAVLCALVGQKDYSNQQTEYFKIALSIECLHTYSLIHDDLPCMDNAALRRNHPTLHAKYDETTAVLIGDALNTYSFELLSNALLESHIIVELIKILSANGGIKGMILGQALDCYFENTPLNLEQLTFLHEHKTAKLISASLIMGLVASGIKDEELFKWLQAFGLKMGLCFQVLDDIIDVTQDEEESGKTTHLDSAKNSFVNLLGLERANNYAQTLKTEVLNDLDALKPAYPLLQENLNALLNTLFKGEGHHHHHH: soluble
MGSDKIHHHHHHMGMNQISQDQIGQARILVVGDMMLDRYWFGDVERISPEAPVPVVQIKRSDERLGGAANVARNSAALGAQVGMLGVVGDDEPGRTIESLLSACKVQPYLHRDASVNTTIKLRVLAHQQQLLRVDFENPPTHEVLLSVLEGFQELVKQYEVLVLSDYGKGGLTHVGRMVEAGRAAGRMVLVDPKGDDYSRYRGATLITPNRAEIRRVVGAWKSEQDLTARAQNLRRDLQLEALLLTRSEEGMTLYTEAEVLHVSAQAREVYDVSGAGDTVIATLATMLAAGVSLKQAVQFANRAGGIVVGKLGTAVVSYPELFGAAG: not soluble
VELPTEYTEQFSSQPTLNSKPIIKFEFTGNSVDAPVLSMASKKFGIDFSILMSQIDYAGGVKFGFVIAEVEGDGEAITAAKCYLINNNVKVEVLGYVG: not soluble
MGSDKIHHHHHHMHEVVQDYYGKQLQSTEDLKTSACCDVSNMPSWLKPLLANIHDEVLSRYYGCGLVCPALLEGCRILDLGCGSGRDVYALAQLVGSTGHVVGVDMTDEQLAIAKQHQDYHVDKFGYDNVTFLKGYIEKLDELNLDPNSFDIIVSNCVINLSPDKAAVMASVQRLLKPGGEFYFSDVYADRRIPQQLINDPVLYGECLSGALYWKDFERLARHADFLDPRLVEDRPLEITDPLLAAKIGDIQFFSATYRLFKIATLEDACEDHGQAVIYRGTIDQLPHHFNLDKHHAIETGRVFPVCGNTFRMLKESRFAKHFDFIGDDSRHYGIFAGCGDILPFGNQANIVSDSNVGQSVNSGSCC: not soluble
DVQLLESGPGLVAPSQSLSITCTVSGFSLTNYGVDWVRQPPGKGLEWVGVIWSGGSTNYNSALMSRLSISKDNSKSQVFLKMNSLQTDDTAVYYCAKHWGGYYIPYGMDHWGQGTTVTVSSASTKGPSVFPLAPSSKSTSGGTAALGCLVKDYFPEPVTVSWNSGALTSGVHTFPAVLQSSGLYSLSSVVTVPSSSLGTQTYICNVNHKPSNTKVDKKVEPKSCDKTHT: soluble

Could you now consider this next sequence?
Name the recorded soluble on expression in E. coli for MSLTPYEPFRHLDQMRREFDRFFPDFPIDLPNRHLTLSPKMDVHETDHEVILECDIPGLESKEDLQIDVEPRSVRIEGRIKRSKEVHDERFYRREREIGHFRRVVPLPAEVAEDDIRAAYRNGVLEVRMRKRLDDRRRTIDVEFHLEHHHHHH . soluble
